TEST_SYSTEM: Hfq TM (Escherichia coli, UniProt P0A6X3 1-102, R16A;R17A;R19D)
TEST: fluorescence anisotropy
PROPERTY_MEASURED: Kd (nM)
Reply numerically in nM, unit not repeated.

Kd reading for AAAAAAAAAAAAAAAAAA (ssRNA) [A18] : 16.8
